# experiment description: Pharmacokinetics in 300/400 mg BID study
# Type: in vivo, human
# test parameters: male, human, plasma, oral, 400 mg, Repeat dose Day 1, Male 400 mg bid (N = 33); read-out: AUC(0-24)
# Description: The primary endpoint was change in 24 h average SBP and DBP from baseline to day 36 as determined by ABPM. […] ABPM data were analyzed using a repeated measures mixed effects model, whereby fixed effects were treatment, day, treatment*day, period, average baseline*day, period adjusted baseline*day, sex and treatment*sex; random effect was subject; and repeated effect was day. […] PK parameters were calculated by standard non-compartmental analysis according to working practices and using Wn Nonlin Pro v. […]
measured attribute: AUC(0-t) (ng·h/mL)
Numbers only here, please. The scale is ng·h/mL.

Name the reported AUC(0-t) value associated with the compound Cl.NC(=O)[C@@H]1CC[C@H](c2ccc(OCc3ccccc3F)cc2)N1
38300
